system: C. glabrata; assay: Minimum inhibitory concentration broth double-dilution assay; assay type: cell-based, Candida glabrata; conditions: #25 C. glabrata TGL00268; 24 h, 30 °C
*1 amine or outer side, *2 acyl side, *3 side chain or, on linkers, in order; H or OH if unused. Where a SMILES comes first, the peptide text is derived from it. Bridges are numbered along the chain shown (N, C = ends). [ ]: non-standard residue; d: D form. The star is where a group is joined. pTerphenylCO(4''-OnC5H11) = CCCCCOc1ccc(-c2ccc(-c3ccc(C(=O)*)cc3)cc2)cc1; Orn(4R-OH,5R-OH) = O=C([C@H](C[C@@H](O)[C@@H](O)N[*:3])N[*:1])[*:2]; hTyr(3S-OH,4S-OH) = N[C@H](C(=O)O)[C@H](O)[C@@H](O)c1ccc(O)cc1; Pro(3S-OH,4S-Me) = C[C@H]1CN[C@H](C(=O)O)[C@H]1O; Hyp = O=C(O)[C@@H]1C[C@@H](O)CN1
Catalogue of compounds with associated MIC

{"compound": "CCCCCOc1ccc(-c2ccc(-c3ccc(C(=O)N[C@H]4C[C@@H](O)[C@@H](O)NC(=O)[C@@H]5[C@@H](O)[C@@H](C)CN5C(=O)[C@H]([C@@H](C)O)NC(=O)[C@H]([C@H](O)[C@@H](O)c5ccc(O)cc5)NC(=O)[C@@H]5C[C@@H](O)CN5C(=O)[C@H]([C@@H](C)O)NC4=O)cc3)cc2)cc1 [ANF, anidulafungin] ({pTerphenylCO(4''-OnC5H11)}-[Orn(4R-OH,5R-OH)]T[Hyp][hTyr(3S-OH,4S-OH)]T[Pro(3S-OH,4S-Me)]; lactam 1-C)", "assay.value": "> 64 µg/mL"}

Switching to the query record.
Returns the measured MIC for the input compound. Input: `CC[C@H](C)C[C@H](C)CCCCCCCCC(=O)N[C@H]1C[C@@H](O)[C@@H](NCCN)NC(=O)[C@@H]2[C@@H](O)CCN2C(=O)[C@H]([C@H](O)CCN)NC(=O)[C@H]([C@H](O)[C@@H](O)c2ccc(O)cc2)NC(=O)[C@@H]2C[C@@H](O)CN2C(=O)[C@H]([C@@H](C)O)NC1=O` > 64 µg/mL

###

system: C. glabrata; assay: Minimum inhibitory concentration broth double-dilution assay; format: cell-based, Candida glabrata; settings: #29 C. glabrata TGL00109; 24 h, 30 °C
*1 amine or outer side, *2 acyl side, *3 side chain or, on linkers, in order; H or OH if unused. Where a SMILES comes first, the peptide text is derived from it. Bridges are numbered along the chain shown (N, C = ends). [ ]: non-standard residue; d: D form. The star is where a group is joined. Orn(4R-OH,5R-OCH2CH2NMe3+) = C[N+](C)(C)CCO[C@@H](N[*:3])[C@H](O)C[C@H](N[*:1])C(=O)[*:2]; pTerphenylCO(4''-OnC5H11) = CCCCCOc1ccc(-c2ccc(-c3ccc(C(=O)*)cc3)cc2)cc1; Orn(4R-OH,5R-OH) = O=C([C@H](C[C@@H](O)[C@@H](O)N[*:3])N[*:1])[*:2]; hTyr(3S-OH,4S-OH) = N[C@H](C(=O)O)[C@H](O)[C@@H](O)c1ccc(O)cc1; Pro(3S-OH,4S-Me) = C[C@H]1CN[C@H](C(=O)O)[C@H]1O; hTyr(3R-OH) = N[C@H](C(=O)O)[C@H](O)Cc1ccc(O)cc1; Hyp = O=C(O)[C@@H]1C[C@@H](O)CN1
Catalogue of compounds with associated MIC
Numbers only here, please. The scale is µg/mL.

{"compound": "CCCCCOc1ccc(-c2ccc(-c3ccc(C(=O)N[C@H]4C[C@@H](O)[C@@H](O)NC(=O)[C@@H]5[C@@H](O)[C@@H](C)CN5C(=O)[C@H]([C@@H](C)O)NC(=O)[C@H]([C@H](O)Cc5ccc(O)cc5)NC(=O)[C@@H]5C[C@@H](O)CN5C(=O)[C@H]([C@@H](C)O)NC4=O)cc3)cc2)cc1 [Compound 1, dehydroxy-ANF] ({pTerphenylCO(4''-OnC5H11)}-[Orn(4R-OH,5R-OH)]T[Hyp][hTyr(3R-OH)]T[Pro(3S-OH,4S-Me)]; lactam 1-C)", "result.unit": "µg/mL", "MIC": 64}
{"compound": "CC[C@H](C)C[C@H](C)CCCCCCCCC(=O)N[C@H]1C[C@@H](O)[C@@H](NCCN)NC(=O)[C@@H]2[C@@H](O)CCN2C(=O)[C@H]([C@H](O)CCN)NC(=O)[C@H]([C@H](O)[C@@H](O)c2ccc(O)cc2)NC(=O)[C@@H]2C[C@@H](O)CN2C(=O)[C@H]([C@@H](C)O)NC1=O", "result.unit": "µg/mL", "MIC": 64}

Switching to the query record.
Returns the measured MIC for the input compound. Input: CCCCCOc1ccc(-c2ccc(-c3ccc(C(=O)N[C@H]4C[C@@H](O)[C@@H](OCC[N+](C)(C)C)NC(=O)[C@@H]5[C@@H](O)[C@@H](C)CN5C(=O)[C@H]([C@@H](C)O)NC(=O)[C@H]([C@H](O)[C@@H](O)c5ccc(O)cc5)NC(=O)[C@@H]5C[C@@H](O)CN5C(=O)[C@H]([C@@H](C)O)NC4=O)cc3)cc2)cc1 [RZF, rezafungin] ({pTerphenylCO(4''-OnC5H11)}-[Orn(4R-OH,5R-OCH2CH2NMe3+)]T[Hyp][hTyr(3S-OH,4S-OH)]T[Pro(3S-OH,4S-Me)]; lactam 1-C) 64
